Quick reference for Total Cell Count among some compounds
System: Fibroblast
Experimental Details: Multiplex assay against human fibroblast
Assay type: toxicity, cell-based
Test Context: 48 h, 10 µM, compound concentration 10 uM, replicate 2

[
  {
    "Compound": "Cc1noc(-c2ccc(-c3ccc(CC(=O)O)cc3)cc2)c1NC(=O)O[C@H](C)c1ccccc1Cl",
    "Total Cell Count": 107
  },
  {
    "Compound": "Cc1cnc(-c2cc(N3CCN(C(=O)CCS(C)(=O)=O)CC3)ncc2Cl)c(C)c1",
    "Total Cell Count": 131
  },
  {
    "Compound": "CCCCC(=O)N(Cc1ccc(-c2ccccc2-c2nnn[nH]2)cc1)[C@H](C(=O)O)C(C)C",
    "Total Cell Count": 141
  },
  {
    "Compound": "CN(C)C(=O)Cn1cc(-c2ccc(-c3cncc4ccccc34)cc2)cn1",
    "Total Cell Count": 102
  },
  {
    "Compound": "CC(C)COc1ccc(CNC(=O)N(Cc2ccc(F)cc2)C2CCN(C)CC2)cc1",
    "Total Cell Count": 159
  },
  {
    "Compound": "CCCOc1ccc2[nH]cc(C3=CCNCC3)c2n1.Cl",
    "Total Cell Count": 116
  },
  {
    "Compound": "CC[C@@H](C)Nc1nc(C)nc2c(-c3ccc(OC)nc3C)c(C)nn12",
    "Total Cell Count": 134
  },
  {
    "Compound": "CN[C@@H](C)C(=O)N[C@H](C(=O)N1CCC[C@H]1C(=O)Nc1snnc1-c1ccccc1)C1CCCCC1",
    "Total Cell Count": 159
  },
  {
    "Compound": "Cc1sc2c(c1C)C(c1ccc(Cl)cc1)=N[C@@H](CC(=O)NCCCCCCCCNC(=O)COc1cccc3c1C(=O)N(C1CCC(=O)NC1=O)C3=O)c1nnc(C)n1-2 (some centres not stated)",
    "Total Cell Count": 108
  },
  {
    "Compound": "N#Cc1c(Oc2cccc(OS(=O)(=O)CCCC(F)(F)F)c2)cccc1C(F)(F)F",
    "Total Cell Count": 150
  },
  {
    "Compound": "CCCCC1=NC2(CCCC2)C(=O)N1Cc1ccc(-c2ccccc2-c2nnn[nH]2)cc1",
    "Total Cell Count": 117
  },
  {
    "Compound": "Br.CS(=O)(=O)Nc1c(O)ccc2c1CCCC2C1=NCCN1 (configuration not stated)",
    "Total Cell Count": 127
  }
]

---

Tested on: Fibroblast
Experimental Details: Multiplex assay against human fibroblast
Type: toxicity, cell-based
Test Context: 12 h, 10 µM, compound concentration 10 uM, replicate 2
Recorded Endpoint: Population Membrane Permeable-Phenotype (%)

[
  {
    "Compound": "CCCCC(=O)N(Cc1ccc(-c2ccccc2-c2nnn[nH]2)cc1)[C@H](C(=O)O)C(C)C",
    "Units Symbol": "%",
    "Numeric Value": 11
  },
  {
    "Compound": "CCCCCC(O)/C=C/[C@H]1C(=O)CC(O)C1C/C=C\\CCCC(=O)O (some centres undefined)",
    "Units Symbol": "%",
    "Numeric Value": 3
  },
  {
    "Compound": "Cc1onc(-c2ccccc2Cl)c1C(=O)N(C)c1ccc(Cl)cc1",
    "Units Symbol": "%",
    "Numeric Value": 5
  },
  {
    "Compound": "CC(=O)Nc1cccc2c1c(Sc1ccc(Cl)cc1)c(C)n2CC(=O)O",
    "Units Symbol": "%",
    "Numeric Value": 8
  },
  {
    "Compound": "CC(/C=C1\\SC(=S)N(CCCC(=O)Nc2ccc(C(=O)O)c(O)c2)C1=O)=C\\c1ccccc1",
    "Units Symbol": "%",
    "Numeric Value": 8
  },
  {
    "Compound": "O=C1[C@H](Cc2ccc(O)cc2)N2C(=O)CCN(C(=O)NCc3ccccc3)[C@H]2CN1Cc1cccc2ccccc12",
    "Units Symbol": "%",
    "Numeric Value": 8
  },
  {
    "Compound": "Br.CS(=O)(=O)Nc1c(O)ccc2c1CCCC2C1=NCCN1 (centres undefined)",
    "Units Symbol": "%",
    "Numeric Value": 12
  },
  {
    "Compound": "Cc1c(CC(=O)O)c2cccnc2n1Cc1ccc(S(C)(=O)=O)cc1C(F)(F)F",
    "Units Symbol": "%",
    "Numeric Value": 9
  },
  {
    "Compound": "NCCc1cn(S(=O)(=O)c2c(Cl)nc3sccn23)c2ccccc12.O=C(O)C(=O)O",
    "Units Symbol": "%",
    "Numeric Value": 5
  }
]
